B1: Pistol ribozyme (parent)
chain: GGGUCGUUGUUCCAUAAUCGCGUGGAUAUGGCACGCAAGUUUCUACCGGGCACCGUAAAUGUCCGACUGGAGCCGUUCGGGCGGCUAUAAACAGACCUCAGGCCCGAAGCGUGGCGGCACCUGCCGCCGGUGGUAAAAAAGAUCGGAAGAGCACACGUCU

variants of: B1; assay: aptazyme ON/OFF ratio, guanine; higher = stronger switching; co-transcriptional cleavage with and without guanine
result_type: aptazyme ON/OFF ratio
Give the figure by itself; no unit, no explanation.

{"variant_key": "U7A U8C G9C U10A U11G C13A", "measured_result": 1.1}
{"variant_key": "U7C U8A U11C C12A C13U", "measured_result": 1.25}
{"variant_key": "U7C U8G G9C U10G U11C C13A", "measured_result": 1.25}
{"variant_key": "U7G U8G G9A U10G U11A C12A C13G", "measured_result": 1.04}
{"variant_key": "U7G G9C U10C U11C C12U C13G", "measured_result": 1.07}
{"variant_key": "U8A G9A U10C C12G C13U", "measured_result": 1.22}

-- ask Name the recorded aptazyme ON/OFF ratio for U8C G9A U10C C13G .
-- reply 1.1

-- ask Next variant: U8G G9A U10G U11G C13A
-- reply 1.56

-- ask Next variant: U7A U8G U10A C12A C13A
-- reply 1.17

-- ask Next variant: U8C G9U U10C C13A
-- reply 1.03
